Sourced from patent US11964953B2

System: human DGKζ (Homo sapiens (Human))
Assay Info: Human DGKζ kinase activity inhibition assay (ADP-Glo)
Type: biochemical
Protocol Conditions: in vitro human DGKζ kinase activity inhibition assay; read-out: IC50
// reported IC50 for each item listed

CC(C(N)=O)N(c1ccc(OC(F)(F)F)nc1)c1nc(N)c(C(=O)c2ccc(Cl)cc2)s1 (racemic)    120 nM
Cc1nc(N(c2ccc(F)cc2)C(C)C(N)=O)sc1C(=O)c1ccccc1 (racemic)    231 nM
CC(C(N)=O)N(c1ccc(F)cc1)c1nc(N)c(C(=O)c2ccc(OCC(=O)NCc3ccccc3Cl)cc2)s1 (racemic)    16.7 nM
CC(C(N)=O)N(c1ccc(F)cc1)c1nc(N)c(C(=O)c2ccc(OCC(=O)N3Cc4ccccc4C3)cc2)s1 (racemic)    76.8 nM
CC(=O)OCCOc1ccc(C(=O)c2sc(N(c3ccc(F)cc3)C(C)C(N)=O)nc2N)cc1 (racemic)    19 nM

Asked: // IC50 lookup, key: CC(C(N)=O)N(c1ccc(F)cc1)c1nc(N)c(C(=O)c2ccc(OC(F)(F)F)cc2)s1 (single isomer, unassigned) [Example 40.2]
Given back: 7.08 nM

Asked: Same lookup for CC(C(N)=O)N(c1ccc(F)cc1)c1nc(N)c(C(=O)c2ccc(OCC(=O)NCC(F)(F)F)cc2)s1 (racemic) , please.
Given back: 75.8 nM

Asked: Same lookup for CC(C(N)=O)N(c1ccc(OC(F)F)c(Cl)c1)c1nc(N)c(C(=O)c2ccc(Cl)cc2)s1 (racemic) , please.
Given back: 69 nM

Asked: Same lookup for CC(C(N)=O)N(c1ccc(Cl)cc1)c1nc(N)c(C(=O)c2ccc(Cl)cc2)s1 (racemic) [Example 41] , please.
Given back: 13.5 nM

Asked: Same lookup for CC(C)NC(=O)c1ccc(C(=O)c2sc(N(c3ccc(F)cc3)C(C)C(N)=O)nc2N)cc1 (racemic) , please.
Given back: 90 nM

Asked: Same lookup for COc1ccc(C(=O)c2sc(N(c3ccc(OC(F)(F)F)c(F)c3)C(C)C(N)=O)nc2N)cc1 (racemic) , please.
Given back: 41 nM

Asked: Same lookup for CC(C(N)=O)N(c1ccc(OC(F)F)c(Cl)c1)c1nc(N)c(C(=O)c2ccncc2)s1 (racemic) , please.
Given back: 381 nM

Asked: Same lookup for CC(C(N)=O)N(c1ccc(F)cc1)c1nc(N)c(C(=O)c2ccc(OCC(=O)NCc3ccccc3F)cc2)s1 (racemic) , please.
Given back: 31.4 nM

###

System: human DGKζ (Homo sapiens (Human))
Assay Info: Human DGKζ kinase activity inhibition assay (ADP-Glo)
Type: biochemical
Protocol Conditions: in vitro human DGKζ kinase activity inhibition assay; read-out: IC50
Metric Name: log10 IC50 (log10 of the value in µM)
Response schema: value (number) is log10 of IC50 in units of µM.

Use these answered entries as a reference point.
CCOC(=O)C(C)(C)Oc1ccc(C(=O)c2sc(N(c3ccc(F)cc3)C(C)C(N)=O)nc2N)cc1 (racemic) [Example 39]    -1.72
COc1ccc(C(=O)c2sc(N(c3ccc(OC(F)(F)F)c(Cl)c3)C(C)C(N)=O)nc2N)cc1 (racemic) [Example 222]    -0.97

Asked: // log10 IC50 lookup, key: CC(C(N)=O)N(c1ccc(OC(F)(F)F)c(Cl)c1)c1nc(N)c(C(=O)c2ccc(Cl)cc2)s1 (racemic) [Example 223]
Given back: -0.63

Asked: Same lookup for COc1cccc(CNC(=O)COc2ccc(C(=O)c3sc(N(c4ccc(F)cc4)C(C)C(N)=O)nc3N)cc2)c1 (racemic) [Example 95] , please.
Given back: -1.41

###

// reported pIC50 for each item listed
System: human DGKζ (Homo sapiens (Human), UniProt Q13574)
Sequence (Q13574 other isoform, or with tags, fused parts or gaps): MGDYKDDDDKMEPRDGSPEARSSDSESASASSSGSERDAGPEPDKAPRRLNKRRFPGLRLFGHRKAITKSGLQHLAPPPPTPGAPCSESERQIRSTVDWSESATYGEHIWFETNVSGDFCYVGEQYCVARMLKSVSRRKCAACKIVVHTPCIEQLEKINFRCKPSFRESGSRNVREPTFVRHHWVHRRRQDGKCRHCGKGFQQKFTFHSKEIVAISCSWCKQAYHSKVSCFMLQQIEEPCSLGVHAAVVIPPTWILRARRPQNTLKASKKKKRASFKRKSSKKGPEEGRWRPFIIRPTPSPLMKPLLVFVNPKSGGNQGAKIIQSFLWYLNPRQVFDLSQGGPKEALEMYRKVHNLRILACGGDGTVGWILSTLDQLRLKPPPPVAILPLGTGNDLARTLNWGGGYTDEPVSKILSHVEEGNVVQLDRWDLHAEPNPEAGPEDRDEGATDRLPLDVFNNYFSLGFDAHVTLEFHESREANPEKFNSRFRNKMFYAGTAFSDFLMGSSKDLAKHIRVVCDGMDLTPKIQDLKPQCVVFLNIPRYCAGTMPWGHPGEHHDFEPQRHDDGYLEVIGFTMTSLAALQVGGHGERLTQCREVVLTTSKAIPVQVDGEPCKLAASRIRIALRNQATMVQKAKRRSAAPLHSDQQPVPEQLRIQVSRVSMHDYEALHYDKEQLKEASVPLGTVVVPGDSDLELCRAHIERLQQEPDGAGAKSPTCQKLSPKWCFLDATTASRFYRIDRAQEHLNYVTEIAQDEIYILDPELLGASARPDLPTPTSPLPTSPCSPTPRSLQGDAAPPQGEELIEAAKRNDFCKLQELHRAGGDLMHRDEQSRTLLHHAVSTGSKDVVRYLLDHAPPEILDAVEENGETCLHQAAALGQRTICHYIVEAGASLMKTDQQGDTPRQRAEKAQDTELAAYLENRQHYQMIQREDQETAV
Assay Info: Human DGKζ kinase activity inhibition assay (ADP-Glo)
Type: biochemical
Protocol Conditions: in vitro human DGKζ kinase activity inhibition assay; read-out: IC50
Keep it numeric: pIC50 is minus log10 of the concentration in mol/L.

Use these answered entries as a reference point.
CC(C(N)=O)N(c1ccc(F)c(F)c1)c1nc(N)c(C(=O)c2ccc(OC(F)F)nc2)s1 (racemic) [Example 163]    8.05
CC(C(N)=O)N(c1ccc2c(c1)OC(F)(F)O2)c1nc(N)c(C(=O)c2ccc(OC(F)F)cc2)s1 (racemic) [Example 214]    7.80

Asked: // pIC50 lookup, key: CC(C(N)=O)N(c1nc(N)c(C(=O)c2ccccc2)s1)c1ccc(OC(F)(F)F)cc1F (racemic) [Example 239]
Given back: 6.63

Asked: Same lookup for CC(C(N)=O)N(c1ccc(C(F)F)nc1)c1nc(N)c(C(=O)c2ccccc2)s1 (racemic) [Example 231] , please.
Given back: 6.18

Asked: Same lookup for COc1ccc(C(=O)c2sc(N(c3ccc(Cl)cc3)C(C)C(N)=O)nc2N)cc1 (racemic) [Example 58] , please.
Given back: 7.78

Asked: Same lookup for CC(C(N)=O)N(c1ccc(F)cc1)c1nc(N)c(C(=O)c2ccc(N3CCCC3)cc2)s1 (racemic) [Example 181] , please.
Given back: 7.19

Asked: Same lookup for COCCNC(=O)c1ccc(C(=O)c2sc(N(c3ccc(F)cc3)C(C)C(N)=O)nc2N)cc1 (racemic) [Example 264] , please.
Given back: 6.42

###

System: human DGKζ (Homo sapiens (Human))
Assay Info: Human DGKζ kinase activity inhibition assay (ADP-Glo)
Type: biochemical
Protocol Conditions: in vitro human DGKζ kinase activity inhibition assay; read-out: IC50
Note to self: IC50 under 200 nM means True, ties and anything higher get False.

Known results for molecules:
CC(C(N)=O)N(c1ccc(F)cc1)c1nc(N)c(C(=O)c2ccc(N3CC4CC4C3)nc2)s1 (racemic)    True
Cc1nc(N(c2ccc(F)c(F)c2)C(C)C(N)=O)sc1C(=O)c1ccc(OC(F)F)cc1 (racemic) [Example 55]    True
CC(C(N)=O)N(c1ccc(F)c(F)c1)c1nc(N)c(C(=O)c2ccc(OC(F)F)nc2)s1 (single isomer, unassigned) [Example 163.2]    False

Asked: Criterion: IC50 strictly below 200 nM. Is it met by Cc1ccc(N(c2nc(N)c(C(=O)c3ccccc3)s2)C(C)C(N)=O)cn1 (racemic) ?
Given back: False

Asked: Same lookup for CC(C(N)=O)N(c1ccc(Cl)c(F)c1)c1nc(N)c(C(=O)c2ccc(C(=O)NCCOc3ccccc3)cc2)s1 (racemic) , please.
Given back: True

Asked: Same lookup for CC(C(N)=O)N(c1ccc(F)cc1)c1nc(N)c(C(=O)c2ccc(OCc3ccccc3)cc2)s1 (single isomer, unassigned) [Example 170.1] , please.
Given back: True

###

// reported log10 IC50 for each item listed
System: human DGKζ (Homo sapiens (Human), UniProt Q13574)
Assay Info: Human DGKζ kinase activity inhibition assay (ADP-Glo)
Format: biochemical
Protocol Conditions: in vitro human DGKζ kinase activity inhibition assay; read-out: IC50
Response schema: value (number) is log10 of IC50 in units of nM.

CC(C(N)=O)N(c1ccc(F)cc1)c1nc(N)c(C(=O)c2ccc(N3CCC(C4COC4)CC3)nc2)s1 (racemic)    2.69
Cc1ccccc1CNC(=O)COc1ccc(C(=O)c2sc(N(c3ccc(F)cc3)C(C)C(N)=O)nc2N)cc1 (racemic)    1.39
CC(C(N)=O)N(c1ccc(OC(F)(F)F)c(Cl)c1)c1nc(N)c(C(=O)c2ccccc2)s1 (racemic)    2.26
CC(C(N)=O)N(c1ccc(Cl)c(OC(F)F)c1)c1nc(N)c(C(=O)c2ccccc2)s1 (racemic)    2.82
CC(C(N)=O)N(c1ccc(OC(F)(F)F)nc1)c1nc(N)c(C(=O)c2ccccc2)s1 (racemic)    2.34
CC(C)NC(=O)C(C)(C)Oc1ccc(C(=O)c2sc(N(c3ccc(F)cc3)C(C)C(N)=O)nc2N)cc1 (racemic)    1.75

Asked: // log10 IC50 lookup, key: CC(C(N)=O)N(c1nc(N)c(C(=O)c2ccc(OC(F)F)cc2)s1)c1ccc(Cl)cc1F (racemic) [Example 46]
Given back: 0.85

###

System: human DGKζ (Homo sapiens (Human), UniProt Q13574)
Assay Info: Human DGKζ kinase activity inhibition assay (ADP-Glo)
Format: biochemical
Protocol Conditions: in vitro human DGKζ kinase activity inhibition assay; read-out: IC50
Metric Name: IC50 (nM)
Give the value in nM but do not write nM after it.

Use these answered entries as a reference point.
Cc1ccc(C(=O)c2sc(N(c3ccc(F)cc3)C(C)C(N)=O)nc2N)cc1 (single isomer, unassigned) [Example 63.1]    5170
CC(C(N)=O)N(c1ccc(F)cc1)c1nc(N)c(C(=O)c2ccc(Br)cc2)s1 (racemic)    10.8
Cc1ccc(C(=O)c2sc(N(c3ccc(F)cc3)C(C)C(N)=O)nc2N)cc1 (racemic) [Example 63]    33.9

Asked: // IC50 lookup, key: Cc1ccc(C(=O)c2sc(N(c3ccc(F)cc3)C(C)C(N)=O)nc2N)cc1 (single isomer, unassigned) [Example 63.2]
Given back: 18.5
